# System: SK-MEL-28 melanoma
# assay-summary: NCI-60 one-dose screen, 48 h (100 = growth as untreated, 0 = no growth, -100 = all killed)
# experimental-parameters: 10 µM
# Method: Growth inhibition of the SK-MEL-28 human tumor cell line is measured as a screen for anti-cancer activity. Cells are grown in 96 well plates and exposed to the test compound for 48 hours. Compounds are tested at a single concentration, which is 10^-5 M for most compounds. The reported endpoint is percent growth (GI% or GIPRCNT), where numbers from 0 - 100% represent growth inhibition, and numbers from -100% - 0 represent cell death. For example, a value of 40 represents 60% growth inhibition. […]
This is part of a sample that, as a whole, favours compounds with a hit. Of some 83,000 tested, about 20% had one in any assay.
measured-quantity: growth (%)
Give bare numbers, in %.

Consider the following items and state reported growth for each.
1. CC(=O)Nc1cc2c(cc1Cl)Cc1cc(Cl)ccc1-2
2. COc1ccc(Cl)cc1Nc1nc(C(F)(F)F)ccc1C(=O)N/N=C/c1cc(OC)c(OC)c(OC)c1
3. CSc1nc(S(C)(=O)=O)nc2[nH]c(=O)[nH]c12
4. CS(=O)(=O)c1nccc(-c2c(-c3cccc(OCCN4CCOCC4)c3)nc3sccn23)n1
5. NC(N)=N/N=C(\c1ccccc1)C(O)c1ccccc1 (stereo not given)
6. CCOC(=O)C1C(C(=O)OCC)C2C(=O)C3C(C(=O)OCC)C(C(=O)OCC)C3C(=O)C12 (stereo not given)
7. O=C(CSc1nnc(-c2cccnc2SCc2ccccc2)o1)Nc1nc(Cl)cc(Cl)n1
8. CN(C)c1nc(N)c2nccnc2n1

Out:
[104, 30.2, 126, 99.3, 107, 105, 113, 118]

Consider the following items and state reported growth for each.
1. COc1ccc(/C=C/c2nnc(/C=C/c3ccc(OC)c(OC)c3)o2)cc1OC
2. Cc1cc(Br)nnc1Br

Out:
1. 30.6
2. 114
